# system_under_test: serotonin 2 receptor (Rattus norvegicus)
# assay_overview: Binding test on [3H] ketanserin (serotonin 2 receptor)
# details: [3H] ketanserin 0.3 nM, receptor fraction of rat cerebral cortex; read-out: 5HT2
outcome_measure: pKi
One number for each entry, as −log10 of the molar value.

{"given_smiles": "O=C(CO)NCc1ccc2ccn(C3CCN(CCc4ccccc4F)CC3)c2c1", "pKi": 8.74}
{"given_smiles": "CCC(=O)NCc1ccc2c(c1)N(C1CCN(CCc3ccc(F)cc3)CC1)CC2", "pKi": 8.59}

Note: attention shifts to another entry.
q: Which pKi value is on record for O=C1CCC(=O)N1Cc1ccc2c(c1)N(C1CCN(CCc3ccc(F)cc3)CC1)CC2 ?
a: 8.35

====

What Ki was measured for each of the following?
# system_under_test: serotonin 1A receptor (Rattus norvegicus, UniProt P19327)
One number for each entry, in nM.

{"compound": "O=C(Cc1ccc2ccn(C3CCN(CCc4ccc(F)cc4)CC3)c2c1)NCc1ccncc1", "Ki / nM": 0.72}

Look up Ki for the entries below, preserving their order.
1. Fc1ccc(CCN2CCC(N3CCc4cc5c(cc43)OCO5)CC2)cc1
2. CNC(=O)Cc1ccc2ccn(C3CCN(CCc4ccc(F)cc4)CC3)c2c1

a:
1: 4.5; 2: 1.82

====

# system_under_test: serotonin 1A receptor (Rattus norvegicus, UniProt P19327)
# Sequence (P19327 1-422): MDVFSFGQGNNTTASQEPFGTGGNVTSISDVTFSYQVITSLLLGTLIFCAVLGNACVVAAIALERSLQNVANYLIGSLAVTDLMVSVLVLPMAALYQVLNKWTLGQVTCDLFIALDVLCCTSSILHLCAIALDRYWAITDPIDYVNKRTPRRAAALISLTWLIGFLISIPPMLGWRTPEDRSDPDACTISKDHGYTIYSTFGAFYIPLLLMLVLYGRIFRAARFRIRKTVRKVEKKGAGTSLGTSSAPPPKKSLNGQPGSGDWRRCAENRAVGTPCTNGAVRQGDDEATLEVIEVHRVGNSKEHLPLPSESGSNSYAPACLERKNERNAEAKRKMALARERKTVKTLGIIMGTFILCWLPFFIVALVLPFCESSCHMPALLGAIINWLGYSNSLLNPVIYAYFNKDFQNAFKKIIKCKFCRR
pKi: −log10 of the molar value.
Use Fulfilled when the recorded pKi is no lower than 8; use Not fulfilled when it is lower.

Answered examples (5):
{"given_smiles": "Fc1ccc(CCN2CCC(n3ccc4ccc(F)cc43)CC2)cc1", "label_value": "Fulfilled"}
{"given_smiles": "Fc1ccc(CCN2CCC(=C3CCc4cccnc43)CC2)cc1", "label_value": "Fulfilled"}
{"given_smiles": "OCCc1ccc(CCN2CCC(N3CCc4ccccc43)CC2)cc1", "label_value": "Not fulfilled"}
{"given_smiles": "NC(=O)c1ccc(CCN2CCC(N3CCc4ccccc43)CC2)cc1", "label_value": "Not fulfilled"}
{"given_smiles": "c1ccc(CCN2CCC(N3CCc4ccccc43)CC2)cc1", "label_value": "Not fulfilled"}

q: Determine whether this molecule has pKi no lower than 8: NC(=O)NCc1ccc2c(c1)N(C1CCN(CCc3ccc(F)cc3)CC1)CC2
a: Fulfilled

====

# system_under_test: serotonin 2 receptor (Rattus norvegicus, UniProt P14842)
# Sequence (P14842 whole entry): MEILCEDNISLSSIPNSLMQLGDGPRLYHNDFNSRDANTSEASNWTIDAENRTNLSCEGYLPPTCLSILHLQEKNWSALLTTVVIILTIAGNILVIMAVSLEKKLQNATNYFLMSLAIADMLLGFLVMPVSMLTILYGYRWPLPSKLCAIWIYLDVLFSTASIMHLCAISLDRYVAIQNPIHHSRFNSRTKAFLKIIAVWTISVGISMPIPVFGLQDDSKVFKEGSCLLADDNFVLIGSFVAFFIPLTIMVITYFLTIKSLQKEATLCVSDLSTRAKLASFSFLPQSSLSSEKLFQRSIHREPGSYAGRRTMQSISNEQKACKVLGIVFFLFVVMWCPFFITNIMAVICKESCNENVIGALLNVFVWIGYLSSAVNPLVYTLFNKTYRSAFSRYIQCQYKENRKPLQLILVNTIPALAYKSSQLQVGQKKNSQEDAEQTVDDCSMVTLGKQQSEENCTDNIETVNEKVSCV
# assay_overview: Binding test on [3H] ketanserin (serotonin 2 receptor)
# details: [3H] ketanserin 0.3 nM, receptor fraction of rat cerebral cortex; read-out: 5HT2
pKi: −log10 of the molar value.
Use Met when the recorded pKi is no lower than 8; use Not met when it is lower.

Answered examples (3):
{"compound": "CCN1CCC(N2CC(CCc3cccc(OC)c3)c3ccccc32)CC1 (centres unmarked) [Example 246]", "label_value": "Not met"}
{"compound": "c1csc(CCN2CCC(N3CCc4ccccc43)CC2)c1 [Example 58]", "label_value": "Not met"}
{"compound": "O=C(Cc1ccc2ccn(C3CCN(CCc4ccc(F)cc4)CC3)c2c1)NCCO [Example 300]", "label_value": "Met"}

q: Determine whether this compound has pKi no lower than 8: Fc1ccc(CCN2CCC(N3CCc4ccccc43)CC2)c(F)n1 [Example 57]
a: Met

q: Determine whether this compound has pKi no lower than 8: CN(C)CCC(=O)NCc1ccc2ccn(C3CCN(CCc4ccc(F)cc4)CC3)c2c1 [Example 378]
a: Met

From: patent US6579881B2
